meta.source: patent US6734179B2

Target: human adenosine A2A receptor (Homo sapiens, UniProt P29274)
Construct: expressed in transfected cells; host or cells: CHO cells, semliki forest virus expression system; membrane preparation
Sequence (P29274 whole entry): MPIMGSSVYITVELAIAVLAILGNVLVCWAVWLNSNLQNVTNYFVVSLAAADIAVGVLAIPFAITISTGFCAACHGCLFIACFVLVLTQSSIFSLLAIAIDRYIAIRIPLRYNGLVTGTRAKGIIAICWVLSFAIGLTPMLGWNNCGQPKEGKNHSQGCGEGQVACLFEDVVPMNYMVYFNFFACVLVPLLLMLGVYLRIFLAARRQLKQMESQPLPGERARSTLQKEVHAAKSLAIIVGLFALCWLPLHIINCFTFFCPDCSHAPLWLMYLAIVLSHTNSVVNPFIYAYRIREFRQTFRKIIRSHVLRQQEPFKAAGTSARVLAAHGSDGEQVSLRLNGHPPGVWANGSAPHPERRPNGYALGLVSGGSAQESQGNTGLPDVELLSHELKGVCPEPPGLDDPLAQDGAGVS
Experiment: [3H]-SCH-58261 binding assay, human adenosine A2A receptor expressed in CHO cell membranes (SPA)
Details: [3H]-SCH-58261 1 nM, Ki by Cheng-Prussoff equation, read-out: hA2 (pKi) (converted)
Protocol: Human Adenosine A2A Receptor The human adenosine A2A receptor was recombinantly expressed in chinese hamster ovary (CHO) cells using the semliki forest virus expression system. […] Assay plates were incubated for 1 hour at room temperature before centrifugation and then bound ligand determined using a Packard Topcount scintillation counter. IC50 values were calculated using a non-linear curve fitting program and Ki values calculated using the Cheng-Prussoff equation.
attributeMeasured: Ki (nM)

[A] CCOc1cc(C(=O)Nc2nc3c(OC)ccc(C4CCOCC4)c3s2)ccn1
[B] COc1ccc(C2CCOCC2)c2sc(NC(=O)c3ccc(C)nc3)nc12
Pick one: A or B . Which has the bigger Ki number? Write down the label of the entry you select.
A

###

biological target: human adenosine A2A receptor (Homo sapiens); construct: expressed in transfected cells; host or cells: CHO cells, semliki forest virus expression system; membrane preparation; experiment: [3H]-SCH-58261 binding assay, human adenosine A2A receptor expressed in CHO cell membranes (SPA); conditions: [3H]-SCH-58261 1 nM, Ki by Cheng-Prussoff equation, read-out: hA2 (pKi) (converted)
attributeMeasured: Ki (nM)

1. COc1ccc(C2CCCCO2)c2sc(NC(=O)c3ccnc(N4CCOCC4)c3)nc12 (stereo not drawn): 2.04

[1] COc1cc(C(=O)Nc2nc3c(OC)ccc(C4CCOCC4)c3s2)ccn1
[2] COc1ccc(C2CCOCC2)c2sc(NC(=O)c3ccnc(C)c3)nc12
Please choose the item with the lower Ki value from this pair: 1 and 2 Write down the label of the entry you select.
1

###

molecular target: human adenosine A2A receptor (Homo sapiens); construct: expressed in transfected cells; host or cells: CHO cells, semliki forest virus expression system; membrane preparation; experiment: [3H]-SCH-58261 binding assay, human adenosine A2A receptor expressed in CHO cell membranes (SPA); settings: [3H]-SCH-58261 1 nM, Ki by Cheng-Prussoff equation, read-out: hA2 (pKi) (converted)
attributeMeasured: Ki (nM)

Reference set, count: 5
1. COCCN(C)c1cc(C(=O)Nc2nc3c(OC)ccc(C4CCOCC4)c3s2)ccn1 [Example 47]: 1.51
2. COC(=O)Nc1nc2c(OC)ccc(C3=CCOCC3)c2s1 [Example 1]: 4.9
3. CCc1cc(C(=O)Nc2nc3c(OC)ccc(C4CCOCC4)c3s2)ccn1 [Example 33]: 1.66
4. COc1ccc(C2CCOCC2)c2sc(NC(=O)N3CCOCC3)nc12 [Example 44]: 1.51
5. COc1ccc(C2CCCCO2)c2sc(NC(=O)c3ccnc(C)c3)nc12 (stereo not drawn) [Example 41]: 3.39

[I] COc1ccc(C2CCN(C(C)=O)CC2)c2sc(NC(=O)c3ccnc(N4CCOCC4)c3)nc12 [Example 20]
[II] COc1cc(C(=O)Nc2nc3c(OC)ccc(C4CCN(C(C)=O)CC4)c3s2)ccn1 [Example 21]
Pick one: I or II . Which has the bigger Ki number? Write down the label of the entry you select.
II
(II: 3.98 nM, I: 2.51 nM)

[P] COc1ccc(C2CCOCC2)c2sc(NC(=O)c3ccc(CCl)cc3)nc12 [Example 7]
[Q] COCCN(C)Cc1ccc(C(=O)Nc2nc3c(OC)ccc(C4CCN(C(C)=O)CC4)c3s2)cc1 [Example 18]
Pick one: P or Q . Which has the bigger Ki number? Write down the label of the entry you select.
Q
